Quick list: apparent KD of MS2 coat protein per entry.
system: MS2 coat protein; assay: apparent KD of MS2 coat protein; designed switch direction (-1 OFF switch, 1 ON switch): -1; higher = weaker reporter binding; conditions: input ligand: FMN 200 uM
Quick note: give the figure in nM, leave out the unit.

Recorded apparent KD of MS2 coat protein, per entry:
| ordered.residues | units.label | apparent KD of MS2 coat protein |
| --- | --- | --- |
| ACAUGAGGAUCACCCAUGUCUGGCUGGUCCGUCUCGGCUGUCGAGGAUAUAGCUCGGUGUCCGCGCUAGAAGGCGGGAGCUGGU [Aenatbe mod 82] (Eterna round: R96, puzzle: Exclusion NG 3) | nM | 631 |
| ACAUGAGGAGAAGGAUAUCUUUAGAGGGUUACCAGAGAAGGUCUAACAUGAGGAUCACCCAUGUCAUGAGGGUCUUGAAUGUUG [10th something] (Eterna round: R96, puzzle: Exclusion NG 1) | nM | 145 |
| CGAUGCUCGAGUCGACAUGAGGAUCACCCAUGUACAGUUAGUGAGGAUAUCGGAGACACAUAGUAUGAGAAGGCGCGAACGUGA [Ex NG3 #16] (Eterna round: R96, puzzle: Exclusion NG 3) | nM | 76.7 |

Here's the next entry for you.
Return apparent KD of MS2 coat protein measured with MS2 coat protein given this sequence: GGGCUCACGGUCAGGAUAUGUAAAACGUAAGUAUUAUAGAAGGGACAUGAGGAUCACCCAUGUGUGAUGAGCGC [Eternabot (L1) Solution 37] (Eterna round: R97, puzzle: Brourd's mod of Exclusion 4)
323

----------
system: MS2 coat protein; assay: apparent KD of MS2 coat protein, switch OFF state (with FMN for OFF switches, without FMN for ON switches); designed switch direction (-1 OFF switch, 1 ON switch): -1; higher = weaker reporter binding; conditions: FMN input: 0 or 200 uM; Eterna round: R93 (includes R88 designs)
Quick list: apparent KD of MS2 coat protein per entry.
Quick note: give the figure in nM, leave out the unit.

Recorded apparent KD of MS2 coat protein, per entry:
| ordered.residues | units.label | endpoint.result |
| --- | --- | --- |
| AUCGUUGGAGGAUAUGCUUGGAAAAAAAAAAAAAAAAAAAAACAUGAGGAUCACCCAUGUAGAAGGUCAAUGGA [Banishment 6 - Jieux - Exclusion 2] | nM | 30.5 |
| AAUAUGUUAGGAUAUGCGAAGUCAGGACACACACUGACGAAGCAGAAGGAACAUGAGGAUCACCCAUGUAAUAA [JR_Exclusion-4 65% 6] | nM | 26.6 |

Here's the next entry for you.
apparent KD of MS2 coat protein for UAGAAGGUAGGAUAUACUUGGGAAACUAAUGCAAAGAUAUAACAUGAGGAUCACCCAUGUAGAAGGGCCAGUAA [JR_Exc002_Sub018] ?
97.9

----------
tested on: MS2 coat protein; experiment: apparent KD of MS2 coat protein; designed switch direction (-1 OFF switch, 1 ON switch): -1; higher = weaker reporter binding; conditions: input ligand: none
Outcome label depends on apparent KD of MS2 coat protein relative to 0.02 µM: at/above gives class 1, below gives class 0.

| ordered.residues | target.or.test.system | label.value |
| --- | --- | --- |
| AGUACUAACACGAGAGUGUUAGUACUAUAAGCUUGUGAAACAUGAGGAUCACCCAUGUCCUCAUAAGCUCGUCUUAU [Mat - Sensor v3 - Turn-off var 2 - D103] (Eterna round: R96, puzzle: Sensor v3, turn-off variant 2) | MS2 coat protein | class 0 |
| ACUUAUAGAGGAUAUACAGUUAAUUACAUGAGGAUCACCCAUGUUCUUCAAUGUAUAUAAGUAGAAGGCUAAGGAA [Ex5 Malc#5 mod] (Eterna round: R97, puzzle: Exclusion 5) | MS2 coat protein | class 0 |
| UUAAAUCAUGUAGGAUAUGCGUGGCAAAGCUAUGCAGAAGGACAUGAGGAUCACCCAUGUUCUAGCGUCUGAGAACAGAUGCUA [Mat - Exclusion NG 1 - Mod of JL - D78] (Eterna round: R96, puzzle: Exclusion NG 1) | MS2 coat protein | class 1 |
| UGAUCUAGGCGAGGAUAUACAUGAGGAUCACCCAUGUAAACGUGACAUGAAAACAUGUCACGAAUGUAGAAGGCGCCUAGAUCU [JL ENG2 3.54] (Eterna round: R96, puzzle: Exclusion NG 2) | MS2 coat protein | class 0 |
| CCAUAUAACUGAGGAUAUAAUCACCACUAACAUUUAGAAGGCAGACAUGAGGAUCACCCAUGUGAUUUCUCAAUAUUAUACAUC [Prohibition 77 - Jieux - Exclusion NG 1] (Eterna round: R96, puzzle: Exclusion NG 1) | MS2 coat protein | class 1 |

Confirm if apparent KD of MS2 coat protein reported for the sequence GGAUCGAGUGUGAGGAUAUGCUGGUCCUAAGAUCAGCAGAAGGCACAUGAGGAUCACCCAUGUGAAAACGGUCC [Mat - Exclusion 4 - JL Mod - D71] (Eterna round: R96, puzzle: Brourd's mod of Exclusion 4) is 0.02 µM or above.
class 1

Now the sequence AUUCAACAUGAGGAUCACCCAUGUGAGGAUAUGCGAGUAUAGACUUCGGUCUGAUAGAGCAGAAGGCGCAGAUA [EX1 #6] (Eterna round: R97, puzzle: Exclusion 1)
class 1

Now the sequence UGAUGACAUGAGGAUCACCCAUGUCAGGAUAUGCUUCGGCUUCGGAAAUGAAGUUGAAGUAGAAGGGACUGUCG [-27.1, -24.1 kcal, A 28% sequence 3 bis] (Eterna round: R97, puzzle: Exclusion 1)
class 1

Now the sequence GGGAACCGAGGAUAUCAGUACACGCACAUGAGGAUCACCCAUGUGCUCCUCGGUGCUGUCUGAGAAGGCGGUGAGA [Raonxe] (Eterna round: R97, puzzle: Exclusion 5)
class 0
